Taken from patent US7534766B2.

Entries annotated with measured Relative Distribution (%) of radioactivity in extracted fecal homogenate
# Run Conditions: male, human, in vivo, 34.2 h
Numeric only. Scale: %

get_value(item= CN(C)c1cc(NC(=O)CNC(C)(C)C)c(O)c2c1C[C@H]1C[C@H]3[C@H](N(C)C)C(O)=C(C(N)=O)C(=O)[C@@]3(O)C(O)=C1C2=O , readout=Relative Distribution (%) of radioactivity in extracted fecal homogenate) returns 32.8

Sample CC(C)(C)NCC(=O)O [Metabolite M3a, t-butylaminoacetic acid] ; Relative Distribution (%) of radioactivity in extracted fecal homogenate observed: 3.9

Data point: CN(C)c1cc(NC(=O)CNC(C)(C)C)c(O)c2c1C[C@H]1C[C@H]3C(N(C)C)C(O[C@@H]4O[C@H](C(=O)O)[C@@H](O)[C@H](O)[C@H]4O)=C(C(N)=O)C(=O)[C@@]3(O)C(O)=C1C2=O (stereo in doubt) [Metabolite M7, tigecycline glucuronide] ; Relative Distribution (%) of radioactivity in extracted fecal homogenate = 26.3

For record CN(C)c1cc(NC(=O)CNC(C)(C)C)c(O)c2c1C[C@H]1C[C@H]3[C@@H](N(C)C)C(O[C@@H]4O[C@H](C(=O)O)[C@@H](O)[C@H](O)[C@H]4O)=C(C(N)=O)C(=O)[C@@]3(O)C(O)=C1C2=O [Metabolite M6, epimer of tigecycline glucuronide] the listed Relative Distribution (%) of radioactivity in extracted fecal homogenate is 7.5
